- PROCEDURE DETAILS: Quantitative High-Throughput drug screen in 47 multiple myeloma cell lines against the NCATS MIPE library collection: Karpas25_ECACC cell viability assay (AID 1918968; further: nearly all actives have a fitted effect of over 35% in size)
- COND: Karpas25 myeloma viability, CellTiter-Glo ATP, 48 h; series mostly up to 45.8 µM
- From the text: PI: Beverly A. Mock Ph.D. Laboratory of Cancer Biology and Genetics, Center for Cancer Research, National Cancer Institute, National Institute of Health, Bethesda, Maryland […] 5; Detector; 425V; Luminescence; Viewlux PerkinElmer. […] 1. […] Briefly, the corresponding myeloma cell lines were screened in 1,536-well plates with 500 cells, 5-uL per well for inhibition of cell viability (assessed by measuring ATP levels with CellTiterGlo). […]
Records with an inconclusive call do not appear. Calls of active or inactive are those of the source. The call rests on the fitted dose curve; in most records, active means well fitted cell-killing curve with a large enough effect; inconclusive means small, poorly fitted or top-dose-only effect, or effect the other way; inactive means no such curve, though single readings can be large or run the other way.
# valid calls are active, inactive; nothing else

Short answer needed: outcome of this test for `Cc1ncc(-c2ccnc(Nc3ccc(S(C)(=O)=O)cc3)n2)n1C(C)C` ? active

Outcome? `O=C(C[C@@H]1CC=CCCC(=O)O[C@H](c2ccccc2)CNC1=O)NCc1ccc(Cl)cc1` inactive

// outcome(item) with item = `Cc1cnc(NC(=O)Nc2cc(Br)c(C)cc2OC[C@@H]2CNCCO2)cn1` active

Assay result, entry `CCN(CC)CCNC(=O)c1c(C)[nH]c(C=C2C(=O)Nc3ccc(F)cc32)c1C` — outcome? active

What call does the record list for `COc1ccc(Nc2cc(-c3cnc(N)nc3)nc(N3CCOCC3)n2)cn1` ? active

What call does the record list for `CC[C@H]1OC(=O)[C@H](C)[C@@H](O[C@H]2C[C@@](C)(OC)[C@@H](O)[C@H](C)O2)[C@H](C)[C@@H](O[C@@H]2O[C@H](C)C[C@H](N(C)C)[C@@H]2O)[C@](C)(OC)C[C@@H](C)C(=O)[C@H](C)[C@@H](O)[C@]1(C)O` ? inactive

Dear all, I need the recorded test outcome for `CC(C)(C)[N+]([O-])=Cc1ccc(S(=O)(=O)O)cc1S(=O)(=O)O` , thank you. inactive

Status in this test for `O=C(NCc1ccccc1)[C@H](Cc1ccccc1)NC(=O)[C@@H]1O[C@@H]1C(=O)NCCc1ccc(O)cc1` ? active

Tell me the recorded outcome of this test for `CC(C)[C@H](CO)Nc1nc(Nc2cccc(Cl)c2)c2ncn(C(C)C)c2n1` . active

Hi, sorry to bother you, what did the test record for `O=C(NNC(=O)c1ccc(CNS(=O)(=O)c2ccc(F)c(Cl)c2)cc1)c1ccccc1` ? inactive

Check the results log: what was the call for `C[C@H](NC(=O)[C@@H](O)c1cc(F)cc(F)c1)C(=O)N[C@@H]1C(=O)N(C)c2ccccc2-c2ccccc21` ? inactive

Per the records of this test, what outcome belongs to `O=C(C=Cc1ccc(CN(CCO)CCc2c[nH]c3ccccc23)cc1)NO` ? active

Recorded test call requested for `CC(C)N1[N]C(=C2C=c3cc(O)ccc3=N2)c2c(N)ncnc21` active

I'd appreciate the recorded outcome for `COC1=C(OC)C(=O)C(CC=C(C)CCC=C(C)CCC=C(C)CCC=C(C)CCC=C(C)CCC=C(C)CCC=C(C)CCC=C(C)CCC=C(C)CCC=C(C)C)=C(C)C1=O` from this test. inactive

Please indicate how the test categorized `Oc1ccc([C@@H]2Oc3ccc(O)cc3[C@@H]3CCC[C@@H]32)cc1` . active

For `CCCCCCCCc1ccc(CCC(N)(CO)CO)cc1` , which call appears in the assay record? active

Outcome logged for `CCCNS(=O)(=O)Nc1ncnc(OCCOc2ncc(Br)cn2)c1-c1ccc(Br)cc1` in this assay: inactive

Hi, sorry to bother you, what did the test record for `CC(C=CC=C(C)C=CC1=C(C)CCCC1(C)C)=CC=CC=C(C)C=CC=C(C)C=CC1=C(C)CCCC1(C)C` ? active

// return assay outcome for COc1ccc2c(c1OC)C(=O)OC2[C@H]1c2c(cc3c(c2OC)OCO3)CCN1C (stereo partly specified) active

Assay result, entry `NC(=O)Nc1sc(-c2ccc(F)cc2)cc1C(N)=O` — outcome? active

Look up the recorded call for `O=C(C=CC#Cc1cccc(NS(=O)(=O)c2ccccc2)c1)NO` in this test. active
